Taken from paper PMC10079235.

- System: HCT-8/WT(NTZ) cells
- procedureDetails: MTS cytotoxicity (drug tolerance) assay
- conditionNotes: human, 41 h
- Method: Host cell drug tolerance to specified inhibitors was evaluated by 3-(4,5-dimethylthiazol-2-yl)-5-(3-carboxymethoxyphenyl)-2-(4-sulfophenyl)-2H-tetrazolium (MTS) assay. […] Optical density at 490 nm (OD490) was measured using a Synergy LX multi-mode reader (BioTek, Winooski, VT). Drug tolerance was indicated by half-maximal cytotoxic concentrations (TC50 values) calculated by nonlinear regression using 4PL model. […]
Where a name gives a salt, the structure may show the parent alone.
Give TC50 for every item shown.
For clarity, give the value followed by its unit.

compound	TC50
CC(=O)O[C@H]1C(=O)[C@@]2(C)[C@H]([C@H](OC(=O)c3ccccc3)[C@]3(O)C[C@H](OC(=O)[C@H](O)[C@@H](NC(=O)c4ccccc4)c4ccccc4)C(C)=C1C3(C)C)[C@]1(OC(C)=O)CO[C@@H]1C[C@@H]2O	12.51 µM
COc1cccc2c1C(=O)c1c(O)c3c(c(O)c1C2=O)C[C@@](O)(C(C)=O)C[C@@H]3O[C@H]1C[C@H](N)[C@H](O)[C@H](C)O1 [Daunorubicin, Daunorubicin HCl]	4.09 µM

Would you mind listing TC50 for each of the following compounds?
1. O=C1c2c(O)ccc(O)c2C(=O)c2c(NCCNCCO)ccc(NCCNCCO)c21 [Mitoxantrone, Mitoxantrone 2HCl]
2. COc1cccc2c1C(=O)c1c(O)c3c(c(O)c1C2=O)C[C@@](O)(C(=O)CO)C[C@@H]3O[C@H]1C[C@H](N)[C@H](O)[C@H](C)O1 [Doxorubicin, Doxorubicin HCl]

Result:
1: 4.15 µM; 2: 4.18 µM
